- Measured target: HLA-B*18:01
- Method: IEDB peptide-MHC binding, purified MHC/competitive/radioactivity; filed as Kd, often an IC50 or EC50 that approximates it; bounds were set here for any values at or beyond the usual limits of such assays
- Condition summary: source organism: SARS coronavirus Tor2

{"columns": ["Primary sequence", "Relation symbol", "Kd, µM"],
 "data": [
  ["FELTSMKYF", "=", 3.72],
  ["AEIRASANLA", "=", 8.13],
  ["KELSPRWYFY", "=", 6.75],
  ["WEIQQVVDA", "=", 4.92],
  ["TERLKLFAA", "=", 0.301],
  ["SEMVMCGGSL", "=", 0.355],
  ["VELVAEMDG", "≥", 28.3],
  ["VEYPIIGDEL", "=", 15.2]
]}
